tested on: GH3-TRE-Luc cell line; conditions: read-out: AC50 (uM) modified / 1000; Tox21_110001=Tox21_201424; viability, 1 nM T3 present, 24 h

>  <smiles_notation>
CC(C)Nc1ccc(Nc2ccccc2)cc1

>  <CC50>
36.2 µM

$$$$

* * *

system: GH3-TRE-Luc cell line; settings: read-out: AC50 (uM) modified / 1000; Tox21_110001=Tox21_110939; viability, 1 nM T3 present, 24 h

>  <molecule>
C[C@]12CC[C@@H]3c4ccc(O)cc4C[C@@H](CCCCCCCCC[S+]([O-])CCCC(F)(F)C(F)(F)F)[C@H]3[C@@H]1CC[C@@H]2O (stereo partly shown)

>  <CC50 [µM]>
0.00438

$$$$
